FYI, the data here is from the supplement of paper PMC11061612.

# Tested on: ALL-SIL (T-Lymphoblastic Leukemia)
# measurement_description: combination Emax (second highest fraction inhibited in the dose matrix, 72 h); higher = more inhibition; extreme values may be limits of the assay
Parameter: combination Emax. Scope: all listed entries.

A selection of reference data follows.
NC1(C(=O)N[C@@H](CCO)c2ccc(Cl)cc2)CCN(c2ncnc3[nH]ccc23)CC1 [Capivasertib] + CCN(CCO)CCCOc1ccc2c(Nc3cc(CC(=O)Nc4cccc(F)c4)[nH]n3)ncnc2c1 [AZD2811] (first compound max 10 µM, 7x7, partner max 1 µM); 0.941
C=CCn1c(=O)c2cnc(Nc3ccc(N4CCN(C)CC4)cc3)nc2n1-c1cccc(C(C)(C)O)n1 [AZD1775] + C1CN(CCC1(C(=O)N[C@@H](CCO)C2=CC=C(C=C2)Cl)N)C3=NC=NC4=C3C=CN4 [Capivasertib] (first compound max 3 µM, partner max 3 µM); 0.936

Alright, here's another compound for you.
Answer briefly: combination Emax recorded on ALL-SIL (T-Lymphoblastic Leukemia) for C[C@@H](c1ccc2nccn2c1)n1nnc2ncc(-c3cnn(C)c3)nc21 [Savolitinib] + CC1(C)CCC(CN2CCN(c3ccc(C(=O)NS(=O)(=O)c4ccc(NCC5CCOCC5)c([N+](=O)[O-])c4)c(Oc4cnc5[nH]ccc5c4)c3)CC2)=C(c2ccc(Cl)cc2)C1 [Venetoclax] (first compound max 1 µM, 7x7, partner max 1 µM) 0.675

* * *

# Tested on: EFO-21 (Ovarian Carcinoma);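 note: after 72 h of two-drug dosing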
# measurement_description: Bliss excess, mean over the matrix (fraction); higher = more synergy
reported_property: Bliss excess
Just the number.

NC1(C(=O)N[C@@H](CCO)c2ccc(Cl)cc2)CCN(c2ncnc3[nH]ccc23)CC1 [Capivasertib] + COc1nnc2ccc(N3CCC(c4ccc(OCCN5CCN(C)C(=O)[C@H]5C)cc4)CC3)nn12 [AZD5153] (first compound max 10 µM, 7x7, partner max 1 µM); -0.046

Note Bliss excess for the molecule shown: CC1(C)CCC(CN2CCN(c3ccc(C(=O)NS(=O)(=O)c4ccc(NCC5CCOCC5)c([N+](=O)[O-])c4)c(Oc4cnc5[nH]ccc5c4)c3)CC2)=C(c2ccc(Cl)cc2)C1 [Venetoclax] + C=CCn1c(=O)c2cnc(Nc3ccc(N4CCN(C)CC4)cc3)nc2n1-c1cccc(C(C)(C)O)n1 [AZD1775] (first compound max 1 µM, partner max 1 µM) 0.0233

Tell me its Bliss excess given COc1nnc2ccc(N3CCC(c4ccc(OCCN5CCN(C)C(=O)[C@H]5C)cc4)CC3)nn12 [AZD5153] + CCN(CCO)CCCOc1ccc2c(Nc3cc(CC(=O)Nc4cccc(F)c4)[nH]n3)ncnc2c1 [AZD2811] (first compound max 1 µM, 7x7, partner max 1 µM) as the entry. -0.0771

* * *

# Test system: NCI-H1355 (Lung Adenocarcinoma)
# measurement_description: combination Emax (second highest fraction inhibited in the dose matrix, 72 h); higher = more inhibition; extreme values may be limits of the assay
# binarize combination Emax: threshold 0.6 inclusive, high side MET, low side NOT MET

Observe how each entry below is paired with its result.
CCN(CCO)CCCOc1ccc2c(Nc3cc(CC(=O)Nc4cccc(F)c4)[nH]n3)ncnc2c1 [AZD2811] + C[C@@H]1COCCN1C2=NC(=NC(=C2)C3(CC3)[S@](=N)(=O)C)C4=C5C=CNC5=NC=C4 [AZD6738] (first compound max 1 µM, 7x7, partner max 10 µM); MET
CN(C)CCCOc1ccc(-c2ccc3ncc4c(c3c2)n(C2CCOCC2)c(=O)n4C)cn1 [AZD0156] + O=C(c1cc(Cc2n[nH]c(=O)c3ccccc23)ccc1F)N1CCN(C(=O)C2CC2)CC1 [Olaparib] (first compound max 3 µM, partner max 3 µM); NOT MET
CN(CCO)CC[C@H](CSc1ccccc1)Nc1ccc(S(=O)(=O)NC(=O)c2ccc(N3CCC([C@@H](O)c4ccccc4-c4ccc(Cl)cc4)CC3)cc2)cc1S(=O)(=O)C(F)(F)F [AZD4320] + CS(=O)(=O)CCNCc1ccc(-c2ccc3ncnc(Nc4ccc(OCc5cccc(F)c5)c(Cl)c4)c3c2)o1 [Lapatinib] (first compound max 1 µM, 7x7, partner max 10 µM); NOT MET
Cc1c2c(nn1C)CSCc1cc(n(C)n1)CSc1cc(c3ccccc3c1)OCCCc1c(C(=O)O)n(C)c3c-2c(Cl)ccc13 [AZD5991] + Nc1ccn([C@@H]2O[C@H](CO)[C@@H](O)C2(F)F)c(=O)n1 [Gemcitabine] (first compound max 1 µM, 7x7, partner max 0.3 µM); NOT MET
COc1cccc(OCCCN)c1-c1cc(Nc2cnc(C#N)cn2)n[nH]1 [Prexasertib] + CCc1c2c(nc3ccc(O)cc13)-c1cc3c(c(=O)n1C2)COC(=O)[C@]3(O)CC [SN-38] (first compound max 1 µM, 7x7, partner max 0.3 µM); MET

For this compound, is measured combination Emax 0.6 or higher? C=CCn1c(=O)c2cnc(Nc3ccc(N4CCN(C)CC4)cc3)nc2n1-c1cccc(C(C)(C)O)n1 [AZD1775] + CCc1c2c(nc3ccc(O)cc13)-c1cc3c(c(=O)n1C2)COC(=O)[C@]3(O)CC [SN-38] (first compound max 1 µM, partner max 0.3 µM) MET

Record COc1cc2c(cc1OCCCCCOc1cc3c(cc1OC)C(=O)N1C=C(C)C[C@H]1C=N3)N=C[C@@H]1CC(C)=CN1C2=O [SG3199] + O=C(c1cc(Cc2n[nH]c(=O)c3ccccc23)ccc1F)N1CCN(C(=O)C2CC2)CC1 [Olaparib] (first compound max 0.001 µM, 7x7, partner max 10 µM) ; criterion: combination Emax no lower than 0.6. Met? NOT MET

Answer whether combination Emax of CN(CCO)CC[C@H](CSc1ccccc1)Nc1ccc(S(=O)(=O)NC(=O)c2ccc(N3CCC([C@@H](O)c4ccccc4-c4ccc(Cl)cc4)CC3)cc2)cc1S(=O)(=O)C(F)(F)F [AZD4320] + CCN(CCO)CCCOc1ccc2c(Nc3cc(CC(=O)Nc4cccc(F)c4)[nH]n3)ncnc2c1 [AZD2811] (first compound max 1 µM, 7x7, partner max 1 µM) is greater than or equal to 0.6. NOT MET

Determine whether this compound has combination Emax no lower than 0.6: Cc1c2c(nn1C)CSCc1cc(n(C)n1)CSc1cc(c3ccccc3c1)OCCCc1c(C(=O)O)n(C)c3c-2c(Cl)ccc13 [AZD5991] + Cc1cc2ncnn2cc1Nc1ncc2c(n1)n(C1CCOCC1)c(=O)n2C [AZD7648] (first compound max 1 µM, 7x7, partner max 10 µM) NOT MET

* * *

# Test system: EFO-21 (Ovarian Carcinoma);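 note: after 72 h of two-drug dosing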
# measurement_description: Bliss excess, mean over the matrix (fraction); higher = more synergy
Please use 1 whenever Bliss excess is not below -0.02, and -1 whenever it is.

A selection of reference data follows.
COc1nnc2ccc(N3CCC(c4ccc(OCCN5CCN(C)C(=O)[C@H]5C)cc4)CC3)nn12 [AZD5153] + C=CCn1c(=O)c2cnc(Nc3ccc(N4CCN(C)CC4)cc3)nc2n1-c1cccc(C(C)(C)O)n1 [AZD1775] (first compound max 1 µM, partner max 1 µM); 1
CC1(C)CCC(CN2CCN(c3ccc(C(=O)NS(=O)(=O)c4ccc(NCC5CCOCC5)c([N+](=O)[O-])c4)c(Oc4cnc5[nH]ccc5c4)c3)CC2)=C(c2ccc(Cl)cc2)C1 [Venetoclax] + C[C@@H]1COCCN1C2=NC(=NC(=C2)C3(CC3)[S@](=N)(=O)C)C4=C5C=CNC5=NC=C4 [AZD6738] (first compound max 1 µM, 7x7, partner max 10 µM); -1
CN(C)CCCOc1ccc(-c2ccc3ncc4c(c3c2)n(C2CCOCC2)c(=O)n4C)cn1 [AZD0156] + C=CCn1c(=O)c2cnc(Nc3ccc(N4CCN(C)CC4)cc3)nc2n1-c1cccc(C(C)(C)O)n1 [AZD1775] (first compound max 1 µM, partner max 1 µM); -1
Cc1cc2ncnn2cc1Nc1ncc2c(n1)n(C1CCOCC1)c(=O)n2C [AZD7648] + COc1cc([C@@H]2c3cc4c(cc3[C@@H](O[C@@H]3O[C@@H]5CO[C@@H](C)O[C@H]5[C@H](O)[C@H]3O)[C@H]3COC(=O)[C@H]23)OCO4)cc(OC)c1O [Etoposide] (first compound max 10 µM, 7x7, partner max 10 µM); 1
C[C@@H](Nc1cc(F)cc(F)c1)c1cc(C(=O)N(C)C)cc2c(=O)cc(N3CCOCC3)oc12 [AZD8186] + CC(=O)c1c(C)c2cnc(Nc3ccc(N4CCNCC4)cn3)nc2n(C2CCCC2)c1=O [Palbociclib] (first compound max 10 µM, 7x7, partner max 10 µM); 1

Consider the additional molecule presented here.
// inclusive: Bliss excess at least -0.02? input: Cc1c2c(nn1C)CSCc1cc(n(C)n1)CSc1cc(c3ccccc3c1)OCCCc1c(C(=O)O)n(C)c3c-2c(Cl)ccc13 [AZD5991] + CC1(C)CCC(CN2CCN(c3ccc(C(=O)NS(=O)(=O)c4ccc(NCC5CCOCC5)c([N+](=O)[O-])c4)c(Oc4cnc5[nH]ccc5c4)c3)CC2)=C(c2ccc(Cl)cc2)C1 [Venetoclax] (first compound max 1 µM, 7x7, partner max 1 µM) -1
